Test system: MCF7 breast
measurement_description: NCI-60 one-dose screen, 48 h
conditions: 10 µM unless noted
About 83,000 compounds went through this panel and 20% of them were active in at least one assay; those are over-represented in the sample as a whole. Activity calls are given as the source filed them. The calls were made as follows: active = growth percent below 10; inactive = the rest.
The reply should name one outcome from active, inactive

Below, 10 molecules whose answers are already recorded.
molecule	assigned_category
COCCn1cc(-c2csc(-c3c[nH]c4ccccc34)n2)c2cccnc21	active
COc1ccc(Nc2ncc(C#N)c(NCCCNC(=O)C3CCC3)n2)cc1	inactive
O=c1oc2c(cc1-c1ccccc1)c[n+]([O-])c1ccccc21	inactive
CCn1cc(C(=O)N/N=C/c2cccc(F)c2)c(=O)c2cc(F)c(N3CCNC(C)C3)c(F)c21 (stereo unspecified)	active
N#Cc1nn(-c2cc(=O)[nH]c3ccc(Br)cc23)c(N)c1C#N	inactive
CCN(CC)C(=O)CC1=C(C)/C(=C/c2[nH]c(-c3ccc[nH]3)cc2OC)N=C1C	inactive
N=C(N)c1ccc(-c2ccc(-c3cc(Cl)cc(Cl)c3)s2)s1	active
COc1ccc(-c2nc3ccc(C)cc3c3c2c(=O)n(C)c(=O)n3C)cc1OC	inactive
O=C(/C=C/c1ccco1)Nc1ncc(Cc2cc(Cl)ccc2Cl)s1	inactive
O=c1c2ccccc2n(C[C@H]2CO2)c2ccccc12	active

What is the recorded call for this molecule in the test? "O=C(O)CCCCCCCCCCN1C(=O)/C(=C2/C(=O)N(CC(=O)O)c3ccc(Br)cc32)SC1=S"
inactive

What is the recorded call for this molecule in the test? "Cc1cccc(NC(=O)N/C(N)=N/c2nc3ccccc3s2)c1"
inactive

What is the recorded call for this molecule in the test? "CS(=O)(=O)c1ccc(-c2nc3ccccc3n2CC(=O)N/N=C/c2ccccc2)cc1"
inactive

What is the recorded call for this molecule in the test? "COc1ccc(/C=C2\c3cc(OC)c(OC)c(OC)c3CC[C@@H]2O)cc1F"
inactive

====

Tested on: NCI-H226 lung
measurement_description: NCI-60 one-dose screen, 48 h (100 = growth as untreated, 0 = no growth, -100 = all killed)
conditions: 10 µM unless noted
Compounds without any hit were thinned out: in the full panel of roughly 83,000, 20% have a hit.
Labelling: growth reported below 90% becomes criterion met; at or above becomes criterion not met.

Below, 2 compounds whose answers are already recorded.
compound	assigned_category
Fc1ccc2[nH]cc(-c3nc(-c4c[nH]c5c(Cl)nccc45)cs3)c2c1	criterion met
Nc1nc(C(=O)N/N=C/c2ccc(F)cc2)nn1-c1ccc(S(N)(=O)=O)cc1	criterion not met

Is 90% strictly greater than the compound's reported growth? compound: "Cc1ccc2cnc(N)c(C#Cc3cc(C(=O)Nc4ccc(CN5CCN(C)CC5)c(C(F)(F)F)c4)cnc3C)c2c1"
criterion met

Is 90% strictly greater than the compound's reported growth? compound: "N#CSc1c[nH]c2ccc(/C=C/C(=O)/C=C(O)/C=C/c3ccc4[nH]cc(SC#N)c4c3)cc12"
criterion met

====

System: RPMI-8226 leukemia
measurement_description: NCI-60 one-dose screen, 48 h (100 = growth as untreated, 0 = no growth, -100 = all killed)
conditions: 10 µM unless noted
This is part of a sample that, as a whole, favours compounds with a hit. Of some 83,000 tested, about 20% had one in any assay. Calls of active or inactive are those of the source. The calls were made as follows: active = growth percent below 10; inactive = the rest.
value_kind: growth

Completed entries (count: 4):
compound	recorded_value
O=S(=O)(N=C1C(Cl)=C(Cl)C(=NS(=O)(=O)c2ccccc2)C(Cl)=C1Cl)c1ccccc1	79.4% (inactive)
Cc1[nH]n(-c2cccc(Cl)c2)c(=O)c1/C=C1\C=c2ccccc2=CC1=O	96.4% (inactive)
CC[C@@H](C(=O)[C@@H](C)[C@@H](O)[C@H](C)[C@@H]1O[C@@H]([C@@H](CC)C(=O)ONC(=O)c2ccccc2O)CC[C@@H]1C)C1O[C@]2(C=CC(=O)[C@]3(CC[C@@](C)([C@H]4CC[C@](O)(CC)[C@H](C)O4)O3)O2)[C@H](C)C[C@@H]1C (stereo partly specified)	24.6% (inactive)
CCCCO[C@@H]1C=C2[C@H]3CC(C)(C)C(=O)C[C@]3(C(=O)O[C@@H]3O[C@H](CO[C@@H]4O[C@H](CO)[C@@H](OC5OC(C)C(O)C(O)C5O)[C@H](O)[C@H]4O)[C@@H](O)[C@H](O)[C@H]3O)CC[C@@]2(C)[C@]2(C)CC[C@H]3C(C)(C)C(=O)CC[C@]3(C)[C@@H]12 (stereo partly specified)	20.4% (inactive)

Provide each entry's growth from the list below.
1. COc1ccc(-c2nc3c(c(-c4ccc(Cl)cc4)nn3-c3ccccc3)c(-c3ccccc3)c2C#N)cc1
2. CCN1C(=O)N(CC)C2C1NN=c1s/c(=C\c3ccc(OC)cc3)c(=O)n12 (stereo unspecified)

106% (inactive)
20.6% (inactive)
